test: solvent given as SMILES; settings: in OCC(F)(F)F
Cut-off 0.7 ns on fluorescence lifetime: below means t, at or above means f.

In: Please determine if CCC1=C(C)C2=C(C)c3c(I)c(I)c(I)n3[B-](F)(F)[N+]2=C1C is below 0.7 ns in terms of fluorescence lifetime.
Out: t

In: # strict comparison: is reported fluorescence lifetime < 0.7 ns? input = CCC1=C(C)C2=C(C)c3cccn3[B-](F)(F)[N+]2=C1C
Out: f

In: Lab note: fluorescence lifetime threshold 0.7 ns. Does this compound come in strictly under it? Cc1ccc(C2=C3C=C(I)C=[N+]3[B-](F)(F)n3c2cc(I)c3I)cc1
Out: t

In: Please check: fluorescence lifetime for N#Cc1cccc2[nH]ccc12 , strictly under 0.7 ns or not?
Out: f

In: Hello, I'm reviewing records and need to know if fluorescence lifetime of Cc1cc2c(o1)c(C)cc1ccc(=O)oc12 is below 0.7 ns. Could you check?
Out: f

In: In plain terms, does CCN(CC)c1ccc2nc3c4ccccc4c(=O)cc-3oc2c1 come in under 0.7 ns for fluorescence lifetime?
Out: f

In: Field: below-cutoff. Rule: recorded fluorescence lifetime strictly less than 0.7 ns. Subject: N#Cc1cccc(N)c1
Out: t

In: # TODO verify fluorescence lifetime < 0.7 ns strictly for this compound: FC(F)(F)C(F)(F)C(F)(F)C(F)(F)C(F)(F)C(F)(F)CCOc1nnc(Cl)nn1
Out: f

In: Is it true that fluorescence lifetime reported for C=CCOc1nnc(OCCC(F)(F)C(F)(F)C(F)(F)C(F)(F)C(F)(F)C(F)(F)C(F)(F)C(F)(F)F)nn1 is less than 0.7 ns?
Out: f

In: Please let me know if CCC1=C(C)C2=Cc3cc(I)cn3[B-](F)(F)[N+]2=C1C shows fluorescence lifetime below 0.7 ns.
Out: t

In: For N#Cc1ccc(N)cc1 , is the recorded fluorescence lifetime below the cut-off of 0.7 ns?
Out: t
